# targetOrSystem: Hck (UniProt P08631)
# Sequence (P08631 whole entry, looked up): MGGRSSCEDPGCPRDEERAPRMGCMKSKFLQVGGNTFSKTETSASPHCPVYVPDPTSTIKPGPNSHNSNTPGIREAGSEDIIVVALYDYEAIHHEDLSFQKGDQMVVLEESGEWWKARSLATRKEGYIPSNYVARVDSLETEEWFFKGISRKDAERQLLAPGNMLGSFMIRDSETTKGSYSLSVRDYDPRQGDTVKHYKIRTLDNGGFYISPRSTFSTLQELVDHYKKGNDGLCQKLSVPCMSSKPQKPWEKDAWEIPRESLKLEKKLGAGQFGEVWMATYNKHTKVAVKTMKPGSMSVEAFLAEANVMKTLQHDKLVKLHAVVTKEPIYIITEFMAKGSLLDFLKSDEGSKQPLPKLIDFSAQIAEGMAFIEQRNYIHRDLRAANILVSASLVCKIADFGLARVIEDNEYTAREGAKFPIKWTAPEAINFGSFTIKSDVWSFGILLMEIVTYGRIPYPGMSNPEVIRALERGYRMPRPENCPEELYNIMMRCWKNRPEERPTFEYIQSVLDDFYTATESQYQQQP
# protocolSummary: phosphorylation enrichment, bacterial display (enrichment ratio); higher = better substrate or ligand; peptides without Tyr show the background;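 also: 11-residue human phosphosite peptides and single-mutation variants displayed on the E. coli surface, counted by deep sequencing, each peptide's frequency after selection divided by its frequency in the unselected input library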;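 also: frequency after pTyr selection over input frequency; kinase dosed for 20-30% of maximal phosphorylation in three min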
phosphorylation enrichment below 0.6 gives not fulfilled; phosphorylation enrichment at or above it gives fulfilled.

Query: Identify whether the reported phosphorylation enrichment of the following sequence is 0.6 or greater: FDAHIYEGRVI [PRKCD_Y64]
Reply: fulfilled

Query: Could you tell me if the measured phosphorylation enrichment of AGREEYSAMRD [KRAS_Y64_Q61R] reaches 0.6 or more?
Reply: not fulfilled

Query: Test whether the sequence RDIHDYIKHLG [UNC13C_Y308] records phosphorylation enrichment of 0.6 or higher.
Reply: not fulfilled

Query: Would you say SRVTQYERDFE [SNX1_Y463] shows phosphorylation enrichment at minimum 0.6?
Reply: not fulfilled

Query: Decide: phosphorylation enrichment of PPTYRYERGSR [INPPL1_Y663] >= 0.6?
Reply: not fulfilled

Query: Could you verify whether the entry MAPQMYEFHLP [NCAPD2_Y6] shows phosphorylation enrichment of no less than 0.6?
Reply: fulfilled

Query: Given the entry ASTHVYQIMNH [ITK_Y588] , answer whether its phosphorylation enrichment meets or surpasses 0.6.
Reply: fulfilled

Query: Check this sequence for phosphorylation enrichment at or above 0.6: CTTIHYNYMGN [TP53_Y234_C238G]
Reply: not fulfilled

Query: phosphorylation enrichment >= 0.6 for QPGTDYKIYRY [FN1_Y1970_L1974R] ?
Reply: not fulfilled

Query: Given the entry KDHRDYKFQPR [SOX9_Y172_P170R_YF] , answer whether its phosphorylation enrichment meets or surpasses 0.6.
Reply: not fulfilled

Query: Textbook exercise: given the entry FFSSEYHCVGG [CTSC_Y345_Y347C_YF] , state whether its phosphorylation enrichment is greater than or equal to 0.6.
Reply: fulfilled

Query: Exam item: decide whether the reported phosphorylation enrichment for FLRTGYSIPFG [TGM1_Y370_V372I_YF] is at least 0.6.
Reply: not fulfilled

Query: Reported phosphorylation enrichment reaches at least 0.6 for LTFHMYADPNI [SOS1_Y618_F623I_YF] ?
Reply: fulfilled

Query: API: above_or_equal(metric=phosphorylation enrichment, cutoff=0.6) for item IMICAYLLHRG [PTEN_Y138_V133I]
Reply: not fulfilled

Query: hey, is phosphorylation enrichment for this one >= 0.6? ARMTNYGLPRY [TSPAN12_Y138]
Reply: not fulfilled

Query: Dear colleague, could you confirm whether IEEGTYGVVFR [CDK11B_Y449_YF] has phosphorylation enrichment at or above 0.6?
Reply: fulfilled

Query: Does the reported phosphorylation enrichment for APQYTYAQGGQ [FLNA_Y1763] fall at or above the 0.6 mark?
Reply: not fulfilled

Query: # bool: phosphorylation enrichment of GHGRFYMKEAI [PGM1_Y66_D62H] >= 0.6
Reply: not fulfilled

Query: Form field: phosphorylation enrichment at least 0.6? Entry: SVTCTYSPALY [TP53_Y126_N131Y]
Reply: fulfilled

Query: Exam item: decide whether the reported phosphorylation enrichment for SCTFTYLLGDR [ETHE1_Y38] is at least 0.6.
Reply: not fulfilled

Query: Check if phosphorylation enrichment >= 0.6 (inclusive). Item: VMICAYLLHRG [PTEN_Y138]
Reply: not fulfilled

Query: Quick check, phosphorylation enrichment >= 0.6? GGDAVYTNGAI [RFX2_Y82]
Reply: fulfilled

Query: For this sequence, is measured phosphorylation enrichment 0.6 or higher? VFDMLYQVANL [USP24_Y1087_L1089V]
Reply: fulfilled

Query: Exam item: decide whether the reported phosphorylation enrichment for ADLTEYLSTHY [UQCRC1_Y219] is at least 0.6.
Reply: not fulfilled

Query: Identify whether the reported phosphorylation enrichment of the following sequence is 0.6 or greater: CEAMEYLESKQ [BTK_Y511]
Reply: fulfilled

Query: hey, is phosphorylation enrichment for this one >= 0.6? TFEPNYGTVKR [RAPGEF6_Y1447_Q1452R_YF]
Reply: fulfilled

Query: Dear colleague, could you confirm whether QRRFLYFFSFL [PTEN_Y176_V175L_YF] has phosphorylation enrichment at or above 0.6?
Reply: fulfilled

Query: Could you please find out whether QNAGDYYDLYG [PTPN11_Y62_T59A] has phosphorylation enrichment that meets 0.6 or exceeds it?
Reply: fulfilled

Query: Identify whether the reported phosphorylation enrichment of the following sequence is 0.6 or greater: PLDAEYFTLQI [TP53_Y327_G325A]
Reply: fulfilled

Query: Could you please find out whether NNIDYYKKTTN [FGFR2_Y657] has phosphorylation enrichment that meets 0.6 or exceeds it?
Reply: fulfilled

Query: In plain terms: is recorded phosphorylation enrichment at least 0.6 for LLSVAYKNVVR [YWHAZ_Y48_G53R] ?
Reply: not fulfilled

Query: Reported phosphorylation enrichment reaches at least 0.6 for DQVEQCKKELE [LMNA_Y259_Y259C] ?
Reply: fulfilled

Query: Does DYNPNYCFAGK [ALK_Y1096] have a reported phosphorylation enrichment of at least 0.6?
Reply: not fulfilled

Query: Would you say KHCEDYVCSYN [DSC1_Y846] shows phosphorylation enrichment at minimum 0.6?
Reply: not fulfilled

Query: Say whether CTTIHYNYMCK [TP53_Y234_N239K] shows phosphorylation enrichment of 0.6 or more.
Reply: not fulfilled

Query: Item DENWFYTRPAS [RPS19_Y54_A57P] with phosphorylation enrichment of 0.6 or above?
Reply: not fulfilled

Query: Entry LKLWDYRRGRC [WDR5B_Y239_S240R] : is its phosphorylation enrichment no less than 0.6?
Reply: not fulfilled

Query: Is the recorded value of phosphorylation enrichment equal to or greater than 0.6 for this sequence? RSFPSYYTSHV [NEFL_Y442]
Reply: fulfilled

Query: Is reported phosphorylation enrichment greater than or equal to 0.6 here: FGMQLYQKFMH [GRB14_Y347_N349K_YF]
Reply: fulfilled

Query: Could you tell me if the measured phosphorylation enrichment of KGEDFYCVTRH [FHL1_Y149_C153R] reaches 0.6 or more?
Reply: fulfilled

Query: phosphorylation enrichment >= 0.6 for FVHDNYVIRRT [CPS1_Y1450] ?
Reply: not fulfilled

Query: # check: phosphorylation enrichment of MPPHICAITDT [MYH9_Y151_Y151C] is greater than or equal to 0.6
Reply: not fulfilled

Query: Evaluate STFVPYEIKVQ [L1CAM_Y784] : phosphorylation enrichment at minimum 0.6?
Reply: not fulfilled

Query: Reported phosphorylation enrichment reaches at least 0.6 for QSQQAYQEAFE [YWHAZ_Y149] ?
Reply: not fulfilled

Query: Textbook exercise: given the entry SDVDLYQVRTA [PSMD9_Y70] , state whether its phosphorylation enrichment is greater than or equal to 0.6.
Reply: fulfilled

Query: Decide: phosphorylation enrichment of HNVAIYEGYAL [ACTC1_Y168_P166A] >= 0.6?
Reply: fulfilled

Query: Is phosphorylation enrichment for KIIRRYVSSEG [ANK2_Y3907] at or above 0.6?
Reply: not fulfilled

Query: Could you tell me if the measured phosphorylation enrichment of VMSMNYRVGAL [BCHE_Y174_V170M] reaches 0.6 or more?
Reply: not fulfilled

Query: Test whether the sequence SVVVPYEPREV [TP53_Y220_P223R] records phosphorylation enrichment of 0.6 or higher.
Reply: not fulfilled

Query: Entry RSGIYYKPESL [L2HGDH_Y103_H98R] : is its phosphorylation enrichment no less than 0.6?
Reply: fulfilled

Query: Check the entry IDSTPYGQWFE [RPS8_Y109_R110G_YF] : does phosphorylation enrichment equal or exceed 0.6?
Reply: fulfilled

Query: Can PHRSIYFSSPK [MPG_Y75_Y71H] be said to have phosphorylation enrichment at or above 0.6?
Reply: fulfilled

Query: # bool: phosphorylation enrichment of LLKKMYLMLDN [STAT1_Y203] >= 0.6
Reply: not fulfilled

Query: Say whether CPSLPYSPVSS [CAMKK2_Y128] shows phosphorylation enrichment of 0.6 or more.
Reply: not fulfilled
